Provenance of the data: patent US5589500A

Experimental system: calmodulin dependent cAMP-PDE (Homo sapiens)
Assay overview: Antagonism of calmodulin dependent cAMP-PDE (inhibiting the activation of cyclic AMP phosphodiesterase by calmodulin)
Type: biochemical
Condition details: ± SD; read-out: Antagonism of calmodulin dependent cAMP-PDE IC50 ± SD
pIC50: −log10 of the molar value.
Readout label: pIC50

Example cases with answers are listed next.
CC/C(=C(\c1ccc(I)cc1)c1ccc(OCCCCN(C)C)cc1)c1ccccc1 [n = 4, R^1 = R^2 = CH3] = 5.65
CC/C(=C(\c1ccc(I)cc1)c1ccc(OCCCN(C)C)cc1)c1ccccc1 [n = 3, R^1 = R^2 = CH3] = 5.69
CC/C(=C(\c1ccc(I)cc1)c1ccc(OCCCN2CCCC2)cc1)c1ccccc1 [n = 3, NR^1 = R^2 = pyrrolidino] = 5.95
CC/C(=C(\c1ccc(I)cc1)c1ccc(OCCCCN2CCCC2)cc1)c1ccccc1 [n = 4, NR^1 = R^2 = pyrrolidino] = 6.00

I = CC/C(=C(\c1ccc(I)cc1)c1ccc(OCCN2CCCC2)cc1)c1ccccc1 [Idoxifene]
II = CC/C(=C(\c1ccc(I)cc1)c1ccc(OCCCCCCCCN2CCCC2)cc1)c1ccccc1 [n = 8, NR^1 = R^2 = pyrrolidino]
III = CC/C(=C(\c1ccc(I)cc1)c1ccc(OCCN(C)C)cc1)c1ccccc1 [4-iodotamoxifen]
Prompt line: Arrange these 3 molecules in increasing order of pIC50. In your reply, arrange the labels in the requested order.
Response line: III, I, II
